- measured-on: T1, huNectin4-His (human, UniProt Q96NY8 32-349)
- T1 construct: Immobilized on the SPR chip; also called humanNectin4; human Nectin4; not shown: His tag
- T1 sequence (looked up): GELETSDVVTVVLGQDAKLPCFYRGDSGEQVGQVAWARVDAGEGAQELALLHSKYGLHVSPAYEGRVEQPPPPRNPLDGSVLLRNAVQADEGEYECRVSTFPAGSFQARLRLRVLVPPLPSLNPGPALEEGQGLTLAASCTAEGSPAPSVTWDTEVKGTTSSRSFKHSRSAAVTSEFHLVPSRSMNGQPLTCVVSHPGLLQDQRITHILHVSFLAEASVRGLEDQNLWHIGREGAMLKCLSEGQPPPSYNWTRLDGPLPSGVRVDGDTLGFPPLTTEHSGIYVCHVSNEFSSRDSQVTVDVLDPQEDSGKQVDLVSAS
- test-summary: SPR, huNectin4-His immobilized, pH 7.4
Measured koff, listed per entry.
Respond numerically; units are s⁻¹ and should not be typed.

Completed entries (count: 3):
{"binder": "BAP-143-06-24-16 (antibody, V domains shown, Used as a conjugate with a linker payload (CAB ADC)) VH: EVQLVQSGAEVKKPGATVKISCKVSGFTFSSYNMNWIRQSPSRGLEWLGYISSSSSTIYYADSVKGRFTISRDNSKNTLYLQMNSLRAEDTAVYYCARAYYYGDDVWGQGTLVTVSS VL: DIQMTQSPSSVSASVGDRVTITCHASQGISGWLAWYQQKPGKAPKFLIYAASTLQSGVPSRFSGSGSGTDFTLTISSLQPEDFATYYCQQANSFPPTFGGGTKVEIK", "koff, s⁻¹": "5.21e-06"}
{"binder": "BAP-143-06-33-16 (antibody, V domains shown, Used as a conjugate with a linker payload (CAB ADC)) VH: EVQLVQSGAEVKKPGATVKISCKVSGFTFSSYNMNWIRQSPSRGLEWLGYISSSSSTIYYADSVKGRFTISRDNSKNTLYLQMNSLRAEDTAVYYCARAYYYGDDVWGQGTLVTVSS VL: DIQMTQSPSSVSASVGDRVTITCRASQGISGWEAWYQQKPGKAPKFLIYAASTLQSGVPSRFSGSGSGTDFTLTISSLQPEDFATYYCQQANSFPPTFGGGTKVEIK", "koff, s⁻¹": "2.01e-05"}
{"binder": "BAP-143-07-03-12 (antibody, V domains shown, Used as a conjugate with a linker payload (CAB ADC)) VH: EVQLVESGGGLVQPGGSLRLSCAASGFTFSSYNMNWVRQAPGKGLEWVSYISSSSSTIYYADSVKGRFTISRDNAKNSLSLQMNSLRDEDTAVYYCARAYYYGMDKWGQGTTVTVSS VL: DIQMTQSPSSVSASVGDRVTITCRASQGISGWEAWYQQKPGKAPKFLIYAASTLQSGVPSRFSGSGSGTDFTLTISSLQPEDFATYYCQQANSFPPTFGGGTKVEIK", "koff, s⁻¹": 0.000401}

# ---- query binder ----
Exam item: May I ask what koff has been recorded for BAP-143-00-01 (antibody, V domains shown, Used as a conjugate with a linker payload (CAB ADC)) VH: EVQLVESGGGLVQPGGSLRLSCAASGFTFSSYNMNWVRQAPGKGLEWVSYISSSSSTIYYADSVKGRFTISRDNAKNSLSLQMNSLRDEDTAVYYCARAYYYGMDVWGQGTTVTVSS VL: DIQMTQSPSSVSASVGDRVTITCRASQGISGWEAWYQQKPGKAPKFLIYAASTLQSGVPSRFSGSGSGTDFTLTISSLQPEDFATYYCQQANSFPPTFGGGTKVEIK ?
Marked response: 0.000517
